Target: UniProt:P19785
Sequence (P19785 whole entry): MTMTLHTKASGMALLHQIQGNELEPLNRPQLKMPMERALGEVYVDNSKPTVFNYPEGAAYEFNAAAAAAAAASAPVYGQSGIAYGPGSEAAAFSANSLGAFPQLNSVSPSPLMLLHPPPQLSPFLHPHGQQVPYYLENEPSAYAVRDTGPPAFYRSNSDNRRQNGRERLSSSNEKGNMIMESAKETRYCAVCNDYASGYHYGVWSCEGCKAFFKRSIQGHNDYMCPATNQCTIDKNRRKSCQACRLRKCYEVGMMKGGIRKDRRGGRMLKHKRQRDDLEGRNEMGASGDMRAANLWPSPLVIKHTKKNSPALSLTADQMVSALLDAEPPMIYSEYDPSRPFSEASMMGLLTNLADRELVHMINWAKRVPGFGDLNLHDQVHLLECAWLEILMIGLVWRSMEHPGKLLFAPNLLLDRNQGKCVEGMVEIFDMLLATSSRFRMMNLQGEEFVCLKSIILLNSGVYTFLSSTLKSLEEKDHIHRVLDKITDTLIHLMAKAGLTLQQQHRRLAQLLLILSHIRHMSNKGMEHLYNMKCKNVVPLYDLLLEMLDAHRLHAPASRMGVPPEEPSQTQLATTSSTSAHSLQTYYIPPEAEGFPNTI
Test: Displacement of [6,7-3H]-17beta-estadiol from estrogen receptor in Tuck No. 1 mouse uterine cytosol at 1000 molar ratio of compound/radioligand incubated 15 mins prior to radioligand addition measured after 1 hr by liquid scintillation counting relative to control
Details: Uterus
VALUE_KIND: Activity (%)

> print(dat)
                               smiles.entry  value.kind  unit.text  measured.result
1  Cc1cc(O)cc2c1[C@H]1CC[C@]3(C)[C@@H](O)CC[C@H]3[C@@H]1C=C2c1ccccc1    Activity          %               18
2  Cc1cc(OCCN(C)C)cc2c1[C@H]1CC[C@]3(C)[C@@H](O)CC[C@H]3[C@@H]1C=C2c1ccccc1    Activity          %               88
3  CCN(CC)CCOc1ccc2c(c1)C(Cc1ccccc1)=C[C@@H]1[C@@H]2CC[C@]2(C)[C@@H](O)CC[C@@H]12    Activity          %               89
4  CN(C)CCOc1ccc2c(c1)C(=O)C[C@@H]1[C@@H]2CC[C@]2(C)[C@@H](O)CC[C@@H]12    Activity          %               66
5  CN(C)CCOc1ccc2c(c1)C(c1ccccc1)=C[C@@H]1[C@@H]2CC[C@]2(C)[C@@H](O)CC[C@@H]12    Activity          %              103
6  CCN(CC)CCOc1ccc2c(c1)C(c1ccccc1)=C[C@@H]1[C@@H]2CC[C@]2(C)[C@@H](O)CC[C@@H]12    Activity          %              101
7  Cc1cc(O)cc2c1[C@H]1CC[C@]3(C)[C@@H](O)CC[C@H]3[C@@H]1CC2=O    Activity          %               14

Values were extracted from ChEMBL document CHEMBL3244009.
